- tested system: COX-1 (UniProt P23219)
- experiment description: Assay for COX-1 activity (PGE2 ELISA, recombinant enzyme)
- Format: biochemical, human or murine
- assay setup: without asterisk
experimental endpoint: IC50

Worked set:
O=C(O)[C@@H]1Cc2c(Cl)ccc(Cl)c2O[C@@H]1C(F)(F)F (racemic): 22 µM
CC(C)(C)c1cc2c(cc1Cl)C[C@@H](C(=O)O)[C@@H](C(F)(F)F)O2: 12 µM

Query string: Would you mind telling me what IC50 value was observed for "O=C(O)[C@@H]1Cc2cc(Cl)ccc2N[C@@H]1C(F)(F)F" ?
Result string: > 100 µM

Query string: Would you mind telling me what IC50 value was observed for N#Cc1ccc2c(c1)C[C@@H](C(=O)O)[C@@H](C(F)(F)F)O2 (racemic) ?
Result string: > 100 µM

Query string: Would you mind telling me what IC50 value was observed for O=C(O)[C@@H]1Cc2cc(Cl)c(Cl)c(Cl)c2O[C@@H]1C(F)(F)F (racemic) ?
Result string: > 100 µM

Query string: Would you mind telling me what IC50 value was observed for O=C(O)[C@@H]1Cc2cc(OC(F)(F)F)ccc2O[C@@H]1C(F)(F)F (racemic) ?
Result string: > 100 µM

* * *

experimental endpoint: melting point

O=C(O)[C@@H]1Cc2c(Cl)ccc(Cl)c2O[C@@H]1C(F)(F)F (racemic): 185.7 to 188.9 °C
O=C(O)[C@@H]1Cc2cc(OC(F)(F)F)ccc2O[C@@H]1C(F)(F)F (racemic): 120.1 to 120.8 °C
CC(C)(C)c1cc2c(cc1Cl)C[C@@H](C(=O)O)[C@@H](C(F)(F)F)O2: 115.8 to 120.9 °C
O=C(O)[C@@H]1Cc2cc(Cl)ccc2N[C@@H]1C(F)(F)F: 154.4 to 154.5 °C

Query string: Would you mind telling me what melting point value was observed for O=C(O)[C@@H]1Cc2c(cc(Cl)c(Cl)c2Cl)O[C@@H]1C(F)(F)F (racemic) ?
Result string: 207.3 to 208.5 °C
